Tested on: KO-52 cells
protocol: Proliferation assay, spheroid-like growth, KO-52 (MLL wildtype control cell line)
Format: cell-based, human
reported conditions: Homo sapiens, 192 h, KO-52 control cells, 8 days, confluence as measure of spheroid size; read-out: spheroid assay_OneTime KO-52 IC50
endpoint label: IC50

Task: // query IC50 value for entry CC(C)[C@@H]([C@H]1C[C@H](N2CCC2)C1)N1CC2(CCN(c3ncnnc3Oc3ccc(F)cc3-c3cncnc3C3CC3)C2)C1 (single isomer, unassigned)
Output: > 15 µM

Task: // query IC50 value for entry CC(=O)N[C@H]1C[C@@H](C(C(C)C)N2CC3(CCN(c4ncnnc4Oc4ccc(F)cc4-c4c[nH]c(=O)nc4C4CC4)C3)C2)C1 (stereo partly drawn)
Output: > 15 µM

Task: // query IC50 value for entry CC(C)C([C@H]1C[C@H](N2CCC(C)(O)CC2)C1)N1CC2(CCN(c3ncnnc3Oc3ccc(F)cc3-c3cncnc3C3CC3)C2)C1 (stereo partly drawn)
Output: > 15 µM

----------
system under test: menin/MLL (terbium chelate-labeled menin, FITC-MBM1 peptide) (Homo sapiens, UniProt O00255, T541A)
Construct: Menin (a.a 1-610-6xhis tag)
Sequence (O00255 with tags, fused parts or gaps T541A): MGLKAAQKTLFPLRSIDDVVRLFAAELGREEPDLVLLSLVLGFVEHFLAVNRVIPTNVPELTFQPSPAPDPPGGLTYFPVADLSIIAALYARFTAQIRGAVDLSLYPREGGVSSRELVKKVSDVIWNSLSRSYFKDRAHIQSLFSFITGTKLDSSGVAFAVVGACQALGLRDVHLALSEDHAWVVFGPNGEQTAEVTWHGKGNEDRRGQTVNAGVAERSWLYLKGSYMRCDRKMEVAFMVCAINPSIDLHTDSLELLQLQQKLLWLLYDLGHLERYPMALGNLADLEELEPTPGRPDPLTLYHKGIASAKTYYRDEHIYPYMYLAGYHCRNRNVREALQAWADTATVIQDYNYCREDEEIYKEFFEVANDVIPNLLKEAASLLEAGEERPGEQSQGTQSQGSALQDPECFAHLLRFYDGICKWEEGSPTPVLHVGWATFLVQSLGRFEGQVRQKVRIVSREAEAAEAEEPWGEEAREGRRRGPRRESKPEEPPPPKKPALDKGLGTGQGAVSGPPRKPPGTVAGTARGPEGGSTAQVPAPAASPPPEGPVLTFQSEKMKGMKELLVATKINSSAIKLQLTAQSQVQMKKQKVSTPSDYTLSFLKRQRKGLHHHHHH
protocol: Menin/MLL homogenous time-resolved fluorescence (HTRF) assay
reported conditions: 30 min incubation
endpoint label: IC50 (nM)
Note: unit nM is implicit; provide only the numeric part.

molecule | measurement unit | IC50
CC(=O)N[C@H]1C[C@@H](C(C(C)C)N2CC3(CCN(c4ncnnc4Oc4ccc(F)cc4-c4nnccc4C4CC4)C3)C2)C1 (stereo partly drawn) | nM | 0.4
COC1CN([C@H]2C[C@H]([C@@H](C(C)C)N3CC4(CCN(c5ncnnc5Oc5ccc(F)cc5-c5cncnc5C5CC5)C4)C3)C2)CC1OC (single isomer, unassigned) | nM | 0.2
CC(C)C([C@H]1C[C@@H](N2CCC(C#N)CC2)C1)N1CC2(CCN(c3ncnnc3Oc3ccc(F)cc3-c3cncnc3C3CC3)C2)C1 (stereo partly drawn) | nM | 0.2
CC(C)C([C@H]1C[C@@H](N2C[C@H]3COC[C@H]3C2)C1)N1CC2(CCN(c3ncnnc3Oc3ccc(F)cc3-c3cnccc3C3CC3)C2)C1 (stereo partly drawn) | nM | 0.1
CNC(=O)c1cnc(N[C@H]2C[C@@H]([C@H](C)N3CC4(CCN(c5ncnnc5Oc5ccc(F)cc5-c5cncnc5C5CC5)C4)C3)C2)s1 (single isomer, unassigned) | nM | 0.14

Let us move to another entry and its IC50.
Task: // query IC50 value for entry Cc1ncc(-c2cc(F)ccc2Oc2nncnc2N2CCC3(C2)CN([C@@H](C(C)C)[C@H]2C[C@@H](N4CCC5(CN(C(=O)C6CC6)C5)C4)C2)C3)c(C2CC2)n1
Output: 0.16

----------
system under test: menin/MLL (terbium chelate-labeled menin, FITC-MBM1 peptide) (Homo sapiens, UniProt O00255, T541A)
Construct: Menin (a.a 1-610-6xhis tag)
protocol: Menin/MLL homogenous time-resolved fluorescence (HTRF) assay
reported conditions: 30 min incubation
endpoint label: IC50

Solved entries:
compound | IC50
CC(C)[C@H]([C@H]1C[C@@H](Nc2ncc(C(N)=O)s2)C1)N1CC2(CCN(c3ncnnc3Oc3ccc(F)cc3-c3cncnc3C3CC3)C2)C1 (single isomer, unassigned) [Compound 446] | ~0.1 nM
CC(C)[C@H]([C@H]1C[C@@H](Nc2cc3nccn3cn2)C1)N1CC2(CCN(c3ncnnc3Oc3ccc(F)cc3-c3cncnc3C3CC3)C2)C1 (single isomer, unassigned) [Compound 433] | 0.15 nM

Let us move to another entry and its IC50.
Task: // query IC50 value for entry CC(C)C([C@H]1C[C@@H](Nc2n[nH]c3ncncc23)C1)N1CC2(CCN(c3ncnnc3Oc3ccc(F)cc3-c3cncnc3C3CC3)C2)C1 (single isomer, unassigned) [Compound 458]
Output: 0.16 nM
